Where do these numbers come from? They come from BigSolDB 2.1.

condition_description: in sec-butanol, 283.15 K

{"columns": ["record_smiles", "solubility (mole fraction)"],
 "data": [
  ["C[C@@H](Oc1ccc(Oc2nc3ccc(Cl)cc3o2)cc1)C(=O)N(C)c1ccccc1F", 0.00491]
]}

* * *

condition_description: in isopropanol, 278.15 K
observation_type: solubility (mole fraction)

{"columns": ["record_smiles", "observation_type", "assay_value"],
 "data": [
  ["C[C@@H](Oc1ccc(Oc2nc3ccc(Cl)cc3o2)cc1)C(=O)N(C)c1ccccc1F", "solubility (mole fraction)", 0.00231]
]}

* * *

condition_description: in n-pentanol, 303.15 K
observation_type: solubility (mole fraction)

{"columns": ["record_smiles", "observation_type", "assay_value"],
 "data": [
  ["C[C@@H](Oc1ccc(Oc2nc3ccc(Cl)cc3o2)cc1)C(=O)N(C)c1ccccc1F", "solubility (mole fraction)", 0.0228]
]}

* * *

condition_description: in n-butanol, 278.15 K
observation_type: solubility (mole fraction)

{"columns": ["record_smiles", "observation_type", "assay_value"],
 "data": [
  ["C[C@@H](Oc1ccc(Oc2nc3ccc(Cl)cc3o2)cc1)C(=O)N(C)c1ccccc1F", "solubility (mole fraction)", 0.00631]
]}

* * *

condition_description: in n-butanol, 283.15 K

{"columns": ["record_smiles", "solubility (mole fraction)"],
 "data": [
  ["C[C@@H](Oc1ccc(Oc2nc3ccc(Cl)cc3o2)cc1)C(=O)N(C)c1ccccc1F", 0.00822]
]}

* * *

condition_description: in n-hexane, 298.15 K

{"columns": ["record_smiles", "solubility (mole fraction)"],
 "data": [
  ["C[C@@H](Oc1ccc(Oc2nc3ccc(Cl)cc3o2)cc1)C(=O)N(C)c1ccccc1F", 0.00112]
]}

* * *

condition_description: in isobutanol, 288.15 K
observation_type: solubility (mole fraction)

{"columns": ["record_smiles", "assay_value"],
 "data": [
  ["C[C@@H](Oc1ccc(Oc2nc3ccc(Cl)cc3o2)cc1)C(=O)N(C)c1ccccc1F", 0.00676]
]}

* * *

condition_description: in isopropanol, 288.15 K

{"columns": ["record_smiles", "solubility (mole fraction)"],
 "data": [
  ["C[C@@H](Oc1ccc(Oc2nc3ccc(Cl)cc3o2)cc1)C(=O)N(C)c1ccccc1F", 0.00422]
]}

* * *

condition_description: in isopentanol, 298.15 K
observation_type: solubility (mole fraction)

{"columns": ["record_smiles", "assay_value"],
 "data": [
  ["C[C@@H](Oc1ccc(Oc2nc3ccc(Cl)cc3o2)cc1)C(=O)N(C)c1ccccc1F", 0.0173]
]}

* * *

condition_description: in sec-butanol, 288.15 K

{"columns": ["record_smiles", "solubility (mole fraction)"],
 "data": [
  ["C[C@@H](Oc1ccc(Oc2nc3ccc(Cl)cc3o2)cc1)C(=O)N(C)c1ccccc1F", 0.00683]
]}

* * *

condition_description: in n-hexane, 293.15 K

{"columns": ["record_smiles", "solubility (mole fraction)"],
 "data": [
  ["C[C@@H](Oc1ccc(Oc2nc3ccc(Cl)cc3o2)cc1)C(=O)N(C)c1ccccc1F", 0.000811]
]}

* * *

condition_description: in isopentanol, 293.15 K

{"columns": ["record_smiles", "solubility (mole fraction)"],
 "data": [
  ["C[C@@H](Oc1ccc(Oc2nc3ccc(Cl)cc3o2)cc1)C(=O)N(C)c1ccccc1F", 0.013]
]}

* * *

condition_description: in n-hexane, 288.15 K
observation_type: solubility (mole fraction)

{"columns": ["record_smiles", "observation_type", "assay_value"],
 "data": [
  ["C[C@@H](Oc1ccc(Oc2nc3ccc(Cl)cc3o2)cc1)C(=O)N(C)c1ccccc1F", "solubility (mole fraction)", 0.000594]
]}

* * *

condition_description: in cyclohexane, 313.15 K

{"columns": ["record_smiles", "solubility (mole fraction)"],
 "data": [
  ["C[C@@H](Oc1ccc(Oc2nc3ccc(Cl)cc3o2)cc1)C(=O)N(C)c1ccccc1F", 0.0287]
]}

* * *

condition_description: in isopentanol, 288.15 K

{"columns": ["record_smiles", "solubility (mole fraction)"],
 "data": [
  ["C[C@@H](Oc1ccc(Oc2nc3ccc(Cl)cc3o2)cc1)C(=O)N(C)c1ccccc1F", 0.00977]
]}

* * *

condition_description: in isopropanol, 293.15 K

{"columns": ["record_smiles", "solubility (mole fraction)"],
 "data": [
  ["C[C@@H](Oc1ccc(Oc2nc3ccc(Cl)cc3o2)cc1)C(=O)N(C)c1ccccc1F", 0.00543]
]}

* * *

condition_description: in n-butanol, 293.15 K

{"columns": ["record_smiles", "solubility (mole fraction)"],
 "data": [
  ["C[C@@H](Oc1ccc(Oc2nc3ccc(Cl)cc3o2)cc1)C(=O)N(C)c1ccccc1F", 0.0139]
]}

* * *

condition_description: in n-hexane, 303.15 K
observation_type: solubility (mole fraction)

{"columns": ["record_smiles", "observation_type", "assay_value"],
 "data": [
  ["C[C@@H](Oc1ccc(Oc2nc3ccc(Cl)cc3o2)cc1)C(=O)N(C)c1ccccc1F", "solubility (mole fraction)", 0.00156]
]}

* * *

condition_description: in n-pentanol, 278.15 K

{"columns": ["record_smiles", "solubility (mole fraction)"],
 "data": [
  ["C[C@@H](Oc1ccc(Oc2nc3ccc(Cl)cc3o2)cc1)C(=O)N(C)c1ccccc1F", 0.00739]
]}

* * *

condition_description: in n-propanol, 278.15 K

{"columns": ["record_smiles", "solubility (mole fraction)"],
 "data": [
  ["C[C@@H](Oc1ccc(Oc2nc3ccc(Cl)cc3o2)cc1)C(=O)N(C)c1ccccc1F", 0.00476]
]}

* * *

condition_description: in isobutanol, 283.15 K

{"columns": ["record_smiles", "solubility (mole fraction)"],
 "data": [
  ["C[C@@H](Oc1ccc(Oc2nc3ccc(Cl)cc3o2)cc1)C(=O)N(C)c1ccccc1F", 0.00487]
]}

* * *

condition_description: in n-hexane, 308.15 K
observation_type: solubility (mole fraction)

{"columns": ["record_smiles", "assay_value"],
 "data": [
  ["C[C@@H](Oc1ccc(Oc2nc3ccc(Cl)cc3o2)cc1)C(=O)N(C)c1ccccc1F", 0.00196]
]}

* * *

condition_description: in n-propanol, 288.15 K

{"columns": ["record_smiles", "solubility (mole fraction)"],
 "data": [
  ["C[C@@H](Oc1ccc(Oc2nc3ccc(Cl)cc3o2)cc1)C(=O)N(C)c1ccccc1F", 0.00876]
]}

* * *

condition_description: in n-butanol, 303.15 K

{"columns": ["record_smiles", "solubility (mole fraction)"],
 "data": [
  ["C[C@@H](Oc1ccc(Oc2nc3ccc(Cl)cc3o2)cc1)C(=O)N(C)c1ccccc1F", 0.0237]
]}

* * *

condition_description: in n-pentanol, 298.15 K

{"columns": ["record_smiles", "solubility (mole fraction)"],
 "data": [
  ["C[C@@H](Oc1ccc(Oc2nc3ccc(Cl)cc3o2)cc1)C(=O)N(C)c1ccccc1F", 0.0187]
]}

* * *

condition_description: in cyclohexane, 293.15 K

{"columns": ["record_smiles", "solubility (mole fraction)"],
 "data": [
  ["C[C@@H](Oc1ccc(Oc2nc3ccc(Cl)cc3o2)cc1)C(=O)N(C)c1ccccc1F", 0.00814]
]}

* * *

condition_description: in n-propanol, 293.15 K

{"columns": ["record_smiles", "solubility (mole fraction)"],
 "data": [
  ["C[C@@H](Oc1ccc(Oc2nc3ccc(Cl)cc3o2)cc1)C(=O)N(C)c1ccccc1F", 0.0115]
]}

* * *

condition_description: in n-pentanol, 293.15 K

{"columns": ["record_smiles", "solubility (mole fraction)"],
 "data": [
  ["C[C@@H](Oc1ccc(Oc2nc3ccc(Cl)cc3o2)cc1)C(=O)N(C)c1ccccc1F", 0.015]
]}

* * *

condition_description: in cyclohexane, 308.15 K
observation_type: solubility (mole fraction)

{"columns": ["record_smiles", "assay_value"],
 "data": [
  ["C[C@@H](Oc1ccc(Oc2nc3ccc(Cl)cc3o2)cc1)C(=O)N(C)c1ccccc1F", 0.0208]
]}

* * *

condition_description: in isobutanol, 298.15 K
observation_type: solubility (mole fraction)

{"columns": ["record_smiles", "assay_value"],
 "data": [
  ["C[C@@H](Oc1ccc(Oc2nc3ccc(Cl)cc3o2)cc1)C(=O)N(C)c1ccccc1F", 0.0126]
]}

* * *

condition_description: in cyclohexane, 288.15 K
observation_type: solubility (mole fraction)

{"columns": ["record_smiles", "assay_value"],
 "data": [
  ["C[C@@H](Oc1ccc(Oc2nc3ccc(Cl)cc3o2)cc1)C(=O)N(C)c1ccccc1F", 0.00627]
]}

* * *

condition_description: in isopropanol, 303.15 K

{"columns": ["record_smiles", "solubility (mole fraction)"],
 "data": [
  ["C[C@@H](Oc1ccc(Oc2nc3ccc(Cl)cc3o2)cc1)C(=O)N(C)c1ccccc1F", 0.00963]
]}

* * *

condition_description: in n-propanol, 283.15 K

{"columns": ["record_smiles", "solubility (mole fraction)"],
 "data": [
  ["C[C@@H](Oc1ccc(Oc2nc3ccc(Cl)cc3o2)cc1)C(=O)N(C)c1ccccc1F", 0.00646]
]}
